Test system: MKNK2;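 also: KINOMEscan kinase panel screen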
assaySetup: concentration: 1 μM, replicates: in singlicate; n = 1

{"columns": ["molecule", "u", "%Inh"],
 "data": [
  ["Cl.c1ccc(Cn2ccc3cc(Nc4ncnc5ccccc45)ccc32)cc1", "%", 12],
  ["O=C(NCCCN1CCCC1=O)c1cnc(NCc2cc(Cl)ccc2Cl)nc1NC1CCNCC1", "%", 0],
  ["COc1ccc(Nc2nccc(N3CCC(NC(=O)Nc4ccc5c(c4)OCO5)C3)n2)cc1 (stereo not drawn)", "%", 6],
  ["O=C(Nc1n[nH]c2nc(-c3ccco3)c(Br)cc12)c1ccc(CN2CCCC2)cc1.O=C(O)[C@H](O)[C@@H](O)C(=O)O", "%", 0],
  ["O=C(Nc1ccccc1F)NC1CCN(c2ccnc(Nc3ccc(F)cc3)n2)C1 (stereo not drawn)", "%", 23],
  ["Fc1cccc(COc2ccc(Nc3ncnc4cc[nH]c34)cc2Cl)c1", "%", 10],
  ["CC(=O)Nc1n[nH]c2ncc(-c3ccccc3)cc12", "%", 62],
  ["FC(F)(F)c1ccc(-c2cc(-c3c[nH]nc3-c3ccccn3)ccn2)cc1", "%", 0],
  ["CSc1ccc(NC2=C(c3ccccc3Cl)C(=O)NC2=O)cc1", "%", 0]
]}
